System: THLE-5B-3A4
Assay: LC/LC/MS/MS peptide hits of biomarker polypeptides in conditioned media of treated hepatocytes
Format: cell-based, human
Details: 20 hr, concentrations of Table 1
parameter: peptide hits BMS-PTX-837
Would you mind answering with just the numeric figure?

• CC1(COc2ccc(CC3SC(=O)NC3=O)cc2)CCCCC1 (stereo not shown) = 25
• Cc1oc(-c2ccccc2)nc1CCOc1ccc(C[C@H](Nc2ccccc2C(=O)c2ccccc2)C(=O)O)cc1 = 15
• Cc1c(C)c2c(c(C)c1O)CCC(C)(COc1ccc(CC3SC(=O)NC3=O)cc1)O2 (stereo not shown) = 17

input: Request body: readout peptide hits BMS-PTX-837, system THLE-5B-3A4, query CCO[C@@H](Cc1ccc(OCCc2ccc(OS(C)(=O)=O)cc2)cc1)C(=O)O . Return the value.
output: 8
